target: Aspartate--tRNA(Asp/Asn) ligase (Mycobacterium tuberculosis (strain ATCC 25618 / H37Rv)) (UniProt P9WFW3); assay: Assay for Asp RNA synthetase-1 from Mycobacterium tuberculosis; type: functional; design: scale not given: in the data most compounds retested in dose-response had high values; settings: 30 µM
Sequence (P9WFW3 whole entry): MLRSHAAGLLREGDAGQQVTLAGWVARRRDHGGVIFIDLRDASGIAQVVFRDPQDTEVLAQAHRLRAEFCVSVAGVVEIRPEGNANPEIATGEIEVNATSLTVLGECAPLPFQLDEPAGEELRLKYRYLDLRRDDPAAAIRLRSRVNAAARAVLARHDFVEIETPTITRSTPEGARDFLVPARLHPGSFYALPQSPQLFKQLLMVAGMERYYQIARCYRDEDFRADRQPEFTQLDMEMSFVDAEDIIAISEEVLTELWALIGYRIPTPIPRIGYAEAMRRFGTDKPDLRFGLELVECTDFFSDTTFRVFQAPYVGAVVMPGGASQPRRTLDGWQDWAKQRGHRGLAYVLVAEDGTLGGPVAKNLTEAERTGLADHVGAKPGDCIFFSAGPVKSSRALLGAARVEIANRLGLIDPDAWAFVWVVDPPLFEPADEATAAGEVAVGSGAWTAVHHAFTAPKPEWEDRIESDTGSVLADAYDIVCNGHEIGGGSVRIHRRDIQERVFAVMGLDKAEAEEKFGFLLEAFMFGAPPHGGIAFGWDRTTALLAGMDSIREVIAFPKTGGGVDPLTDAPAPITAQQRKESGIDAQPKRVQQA
So I've got a bunch of compounds here, and I need their Percent Effect values.
// note: answer is a bare numeric in %

Lab note: measured Percent Effect of "COc1c(CNCc2ccc(N(C)C)nc2)c(C(C)C)nn1C" was 0.0333

Lab note: measured Percent Effect of "COc1ccccc1OCC(=O)NS(=O)(=O)c1ccc(Br)s1" was 2.43

Lab note: measured Percent Effect of "Cc1ccc([C@@H]2CN(C(=O)c3ccc[nH]3)C[C@H]2NC(=O)C2CC2)cc1" was -1.93

Lab note: measured Percent Effect of c1nc2n(n1)CC(NCc1nc(-c3ccsc3)no1)CC2 (centres undefined) was 4.69

Lab note: measured Percent Effect of CCc1nccn1C1CCCN(C(=O)c2ccc3nncn3c2)C1 (centres undefined) was -8.68

Lab note: measured Percent Effect of "O=C(Nc1cccc(CN2CCOC2=O)c1)N1CCOCC1" was 1.78

Lab note: measured Percent Effect of Cc1cnc(CN(C)C2CCN(CC(=O)Nc3c(C)n[nH]c3C)C2)o1 (centres undefined) was -2.74

Lab note: measured Percent Effect of "Cc1cc(CN2CC[C@H]3C[C@H](c4nccs4)O[C@@H]3C2)no1" was -1.08

Lab note: measured Percent Effect of "COCCCn1ccnc1-c1cnc(OC)nc1" was 2

Lab note: measured Percent Effect of "O=C(O)C1(Cc2ccccc2Cl)CCN(c2ncccc2F)CC1" was 2.22

Lab note: measured Percent Effect of "Fc1ccc(CN2CCC(c3nccnc3-n3ccnc3)CC2)cc1" was -5.52

Lab note: measured Percent Effect of "CCc1nc(CC(=O)N2CCn3c(nnc3C(F)(F)F)C2)cs1" was 1.3

Lab note: measured Percent Effect of "Cc1noc(C)c1CN1CC[C@@H]2O[C@@H](COCC(C)C)CC[C@@H]21" was -1.08

Lab note: measured Percent Effect of "CN(CC(N)=O)S(=O)(=O)c1ccc(F)cc1Cl" was -2.44

Lab note: measured Percent Effect of "Cc1ccc(S(=O)(=O)N2C[C@@H]3C[C@@H](NC(=O)C(C)(C)C)[C@@H]3C2)cc1" was 1.47

Lab note: measured Percent Effect of "Cc1cc(N2CCCN(C(=O)Cc3csc(C)n3)CC2)ccn1" was 0.502

Lab note: measured Percent Effect of c1ccc(Cn2cc(CNC3CCc4ncnn4C3)cn2)cc1 (centres undefined) was -2.87

Lab note: measured Percent Effect of NCC1CN(c2nc(-c3ccccc3)nc3c2CCNCC3)CCO1 (centres undefined) was -0.798

Lab note: measured Percent Effect of "O=C(Cc1cccs1)N1C[C@@H]2COC[C@]2(COc2cccnc2)C1" was -6.32

Lab note: measured Percent Effect of Cc1cc(CN(C)C2CCCN(c3cccnn3)C2)on1 (centres undefined) was 0.172

Lab note: measured Percent Effect of Cc1ccc(C(=O)N2CCN(CC(O)c3ccc(F)cc3)CC2)s1 (centres undefined) was 0.567

Lab note: measured Percent Effect of Cc1noc(C)c1CN1CCOC2(CCCN(c3nccs3)C2)C1 (centres undefined) was 7.92

Lab note: measured Percent Effect of "CN(C(=O)Cc1ccc2c(c1)OCCO2)C1CCCC1" was -2.52

Lab note: measured Percent Effect of "Cc1ccc(C(=O)NCCCNS(C)(=O)=O)c(=O)[nH]1" was -3.45
